- Target System: BRD4 (BDII_E352-M457) (Homo sapiens, UniProt O60885)
- Method: TR-FRET bromodomain binding assay, BRD4 second bromodomain
pKi: −log10 of the molar value.
Attribute Measured: pKi

Looking for the measured pKi of CCOC(=O)c1cc2c(-c3cc(F)ccc3OC3CCCCC3)[nH]c(C)c2c(=O)[nH]1 [Example 48] , can you help?
7.02

1: CCS(=O)(=O)c1ccc(NCC2CC2)c(-c2[nH]c(C)c3c(=O)[nH]ncc23)c1 [Example 84]
2: COCCNC(=O)c1cc2c(-c3ccccc3Oc3ccccc3)[nH]c(C)c2c(=O)[nH]1 [Example 29]
3: CCOC(=O)c1cc2c(-c3cc([N+](=O)[O-])ccc3Oc3ccc(F)cc3F)[nH]c(C)c2c(=O)[nH]1 [Example 33]
Could you please sort these 3 entries by pKi from high to low? Answer by writing out the labels in the requested order.
2, 1, 3

* * *

- Target System: BRD4 (BDI_K57-E168) (Homo sapiens)
- Construct: BD1: amino acids K57-E168
- Method: TR-FRET bromodomain binding assay, BRD4 first bromodomain
- Condition Parameters: His-tagged BD1, 100 nM Alexa647 probe; Ki calculated from IC50; dilution protocol A-G
Attribute Measured: Ki (nM)

Looking for the measured Ki of Cc1[nH]c(-c2ccccc2Oc2ccc(F)cc2F)c2cc(C(=O)O)[nH]c(=O)c12 , can you help?
225

Looking for the measured Ki of Cc1[nH]c(-c2ccccc2Oc2ccccc2)c2cc(C(=O)NC(C)(C)C#N)[nH]c(=O)c12 , can you help?
36.9

Looking for the measured Ki of Cc1[nH]c(-c2cc(C#N)ccc2Oc2ccc(F)cc2F)c2cn[nH]c(=O)c12 , can you help?
36.7

Looking for the measured Ki of Cc1[nH]c(-c2ccccc2Oc2ccccc2)c2cc(C(=O)Nc3nccs3)[nH]c(=O)c12 , can you help?
56.8

Looking for the measured Ki of Cc1[nH]c(-c2ccccc2Oc2ccccc2)c2cc(C(=O)NC[C@H]3CCNC3)[nH]c(=O)c12 , can you help?
2.02

a: Cc1[nH]c(-c2cc(NS(C)(=O)=O)ccc2Oc2ccccc2)c2cn[nH]c(=O)c12
b: Cc1[nH]c(-c2ccccc2Oc2ccccc2)c2cc(C(=O)N3CCOCC3)[nH]c(=O)c12
c: Cc1[nH]c(-c2ccccc2Oc2ccccc2)c2cc(C(=O)Nc3ccc(CN4CCN(C)CC4)cc3)[nH]c(=O)c12
Could you please sort these 3 entries by Ki from high to low? Answer by writing out the labels in the requested order.
b, c, a
(b: 105 nM, c: 27.7 nM, a: 1.49 nM)

* * *

- Target System: BRD4 (BDII_E352-M457) (Homo sapiens)
- Method: TR-FRET bromodomain binding assay, BRD4 second bromodomain
Attribute Measured: Ki (nM)

Solved cases below.
Looking for the measured Ki of Cc1nc2c(-c3ccccc3Oc3ccccc3)[nH]c(C)c2c(=O)[nH]1 , can you help?
497

Looking for the measured Ki of Cc1[nH]c(-c2cc(S(C)(=O)=O)ccc2Oc2ccc(F)cc2F)c2cn[nH]c(=O)c12 , can you help?
254

Looking for the measured Ki of Cc1[nH]c(-c2cc(NS(=O)(=O)CC(F)(F)F)ccc2Oc2ccccc2)c2cn[nH]c(=O)c12 , can you help?
16.2

Looking for the measured Ki of CCOC(=O)c1cc2c(-c3cc(N)ccc3Oc3ccc(F)cc3F)[nH]c(C)c2c(=O)[nH]1 , can you help?
91.3

a: CCS(=O)(=O)Nc1ccc(Oc2ccc(F)cc2F)c(-c2[nH]c(C)c3c(=O)[nH]ncc23)c1
b: Cc1[nH]c(-c2ccccc2Oc2ccccc2)c2cc(C(=O)NC3CCNCC3)[nH]c(=O)c12
c: Cc1[nH]c(-c2ccccc2Oc2ccccc2)c2cc(C(=O)NCC3CNCC3(F)F)[nH]c(=O)c12 (centres unmarked)
d: Cc1[nH]c(-c2cc(F)ccc2OCC2CC2)c2cc(-c3nc(-c4cnccn4)no3)[nH]c(=O)c12
Hi! Can you put these in order of Ki, lowest number first? Answer by writing out the labels in the requested order.
a, b, c, d
(a: 5.91 nM, b: 15.8 nM, c: 59.7 nM, d: 659 nM)

* * *

- Target System: BRD4 (BDI_K57-E168) (Homo sapiens, UniProt O60885)
- Construct: BD1: amino acids K57-E168
- Method: TR-FRET bromodomain binding assay, BRD4 first bromodomain
- Condition Parameters: His-tagged BD1, 100 nM Alexa647 probe; Ki calculated from IC50; dilution protocol A-G
pKi: −log10 of the molar value.
Attribute Measured: pKi

Solved cases below.
Looking for the measured pKi of Cc1[nH]c(-c2ccccc2Oc2ccccc2)c2cc(-c3nc(-c4ccccc4)no3)[nH]c(=O)c12 , can you help?
5.90

Looking for the measured pKi of Cc1[nH]c(-c2ccccc2Oc2ccccc2)c2cc(C(=O)NC3CCOC3)[nH]c(=O)c12 (centres unmarked) , can you help?
8.00

Looking for the measured pKi of Cc1cc(-c2ccc(-c3[nH]c(C)c4c(=O)[nH]ncc34)cc2)[nH]n1 , can you help?
6.90

P: CCOC(=O)c1cc2c(-c3cc(Cl)ccc3Oc3ccc(F)cc3F)[nH]c(C)c2c(=O)[nH]1
Q: Cc1[nH]c(-c2cc(CN3CCN(C)CC3)ccc2Oc2ccc(F)cc2F)c2c1C(=O)NCC2
R: Cc1[nH]c(-c2cc(S(C)(=O)=O)ccc2Oc2ccc(F)cc2F)c2c1C(=O)NCC2
S: CCOC(=O)c1cc2c(-c3cc(N)ccc3Oc3ccc(F)cc3F)[nH]c(C)c2c(=O)[nH]1
Could you please sort these 4 entries by pKi from high to low? Answer by writing out the labels in the requested order.
S, R, P, Q

* * *

- Target System: BRD4 (BDI_K57-E168) (Homo sapiens)
- Construct: BD1: amino acids K57-E168
- Method: TR-FRET bromodomain binding assay, BRD4 first bromodomain
- Condition Parameters: His-tagged BD1, 100 nM Alexa647 probe; Ki calculated from IC50; dilution protocol A-G
pKi: −log10 of the molar value.
Attribute Measured: pKi

Solved cases below.
Looking for the measured pKi of CNC(=O)c1cc2c(-c3cc(C(F)(F)F)ccc3Oc3ccc(F)cc3F)[nH]c(C)c2c(=O)[nH]1 , can you help?
7.11

Looking for the measured pKi of Cc1[nH]c(-c2ccccc2Oc2ccccc2)c2cc(C(=O)N3CCN(C)CC3)[nH]c(=O)c12 , can you help?
7.49

Looking for the measured pKi of COC(=O)c1cc2c(-c3cc(N)ccc3Oc3ccccc3)[nH]c(C)c2c(=O)[nH]1 , can you help?
8.83

I: Cc1[nH]c(-c2cc(S(C)(=O)=O)ccc2Oc2ccc(F)cc2F)c2cc(C(=O)O)[nH]c(=O)c12
II: CCCNC(=O)c1cc2c(-c3cc(N)ccc3Oc3ccc(F)cc3F)[nH]c(C)c2c(=O)[nH]1
III: Cc1noc(-c2cc3c(-c4ccccc4Oc4ccccc4)[nH]c(C)c3c(=O)[nH]2)n1
IV: Cc1[nH]c(-c2ccccc2)c2c1C(=O)NCC2
Hi! Can you put these in order of pKi, lowest number first? Answer by writing out the labels in the requested order.
IV, I, II, III

A: Cc1[nH]c(-c2cc(S(C)(=O)=O)ccc2Oc2ccc(F)cc2F)c2cn[nH]c(=O)c12
B: Cc1[nH]c(-c2ccccc2Oc2ccccc2)c2cc(C(=O)NN(C)C)[nH]c(=O)c12
C: Cc1[nH]c(-c2cc(NS(C)(=O)=O)ccc2Oc2ccccc2)c2cc(C(N)=O)[nH]c(=O)c12
Could you please sort these 3 entries by pKi from high to low? Answer by writing out the labels in the requested order.
C, B, A
(C: 8.79, B: 8.08, A: 7.64)

A: Cc1[nH]c(-c2ccccc2Oc2ccccc2)c2cc(-c3nc(-c4ccccn4)no3)[nH]c(=O)c12
B: Cc1[nH]c(-c2cc(N)ccc2Oc2ccccc2)c2nc[nH]c(=O)c12
C: Cc1[nH]c(-c2ccccc2Oc2ccccc2)c2cc(C(=O)Nc3ccncc3)[nH]c(=O)c12
D: CCOC(=O)c1cc2c(-c3cc(F)ccc3OC3CCCCC3)[nH]c(C)c2c(=O)[nH]1
E: CCS(=O)(=O)Nc1ccc(Oc2ccc(F)cc2F)c(-c2[nH]c(C)c3c(=O)[nH]ncc23)c1
Could you please sort these 5 entries by pKi from high to low? Answer by writing out the labels in the requested order.
E, D, A, C, B

P: Cc1[nH]c(-c2cc(N)ccc2Oc2ccc(F)cc2F)c2c1C(=O)NC(C)C2 (stereo not shown)
Q: CO[C@H]1C[C@H](NC(=O)c2cc3c(-c4ccccc4Oc4ccccc4)[nH]c(C)c3c(=O)[nH]2)C1
R: CCOC(=O)c1cc2c(-c3cc(F)ccc3OCC3CC3)[nH]c(C)c2c(=O)[nH]1
S: COC(=O)c1cc2c(-c3cc(NS(C)(=O)=O)ccc3Oc3ccccc3)[nH]c(C)c2c(=O)[nH]1
T: CCS(=O)(=O)c1ccc(NCC2CC2)c(-c2[nH]c(C)c3c(=O)[nH]ncc23)c1
Hi! Can you put these in order of pKi, lowest number first? Answer by writing out the labels in the requested order.
R, Q, T, P, S

a: Cc1[nH]c(-c2ccccc2Oc2ccccc2)c2cc(-c3nc(Cn4cncn4)no3)[nH]c(=O)c12
b: CNC(=O)c1cc2c(-c3ccccc3Oc3ccccc3)[nH]c(C)c2c(=O)[nH]1
c: CCOC(=O)c1cc2c(-c3cc([N+](=O)[O-])ccc3Oc3ccc(F)cc3F)[nH]c(C)c2c(=O)[nH]1
d: Cc1[nH]c(-c2ccccc2Oc2ccccc2)c2cc(C(=O)N(C)C)[nH]c(=O)c12
e: COC(=O)C1Cc2c(-c3ccccc3Oc3ccccc3)[nH]c(C)c2C(=O)N1 (stereo not shown)
Hi! Can you put these in order of pKi, lowest number first? Answer by writing out the labels in the requested order.
c, d, e, b, a
(c: 6.30, d: 6.85, e: 7.61, b: 8.36, a: 8.64)

P: COC(=O)c1cc2c(-c3ccccc3Oc3ccccc3)[nH]c(C)c2c(=O)[nH]1
Q: Cc1[nH]c(-c2cc(NS(C)(=O)=O)ccc2Oc2ccc(F)cc2F)c2cc(C(N)=O)[nH]c(=O)c12
In the pair P and Q , the larger recorded pKi belongs to which? Output the label that corresponds to your choice.
Q

P: CCS(=O)(=O)Nc1ccc(Oc2ccccc2)c(-c2[nH]c(C)c3c(=O)[nH]ncc23)c1
Q: CCOC(=O)c1cc2c(-c3cc(NS(C)(=O)=O)ccc3Oc3ccccc3)[nH]c(C)c2c(=O)[nH]1
Hello, I am sorting some records. Could you say if P or Q has the smaller pKi value? Output the label that corresponds to your choice.
P

a: Cc1[nH]c(-c2ccccc2Oc2ccccc2)c2cc(-c3nc(-c4cccnc4)no3)[nH]c(=O)c12
b: Cc1nc2c(-c3ccccc3Oc3ccccc3)[nH]c(C)c2c(=O)[nH]1
Hello, I am sorting some records. Could you say if a or b has the smaller pKi value? Output the label that corresponds to your choice.
b
